- Tested on: HepG2
- experimental_details: Cytotoxicity against human HepG2 cells assessed as surviving fraction at 5 ug/ml after 48 hrs by SRB assay relative to control
- Assay type: functional
Below, each entry is listed with its recorded Activity.
Just the number.

>>> numeric_result("N=C1C(=S)N(c2ccc(Cl)cc2)C(=O)N1Cc1ccccc1")
0.45

Recorded result, COc1ccc(N2C(=N)C(=S)N(c3ccc(OC)cc3OC)C2=O)cc1 , Activity: 0.42

The measured Activity associated with COc1ccc(N2C(=O)N(c3ccc(C)cc3)C(=N)C2=S)c(OC)c1 reads 0.6

So for COc1ccc(N2C(=O)N(c3ccc(SC)cc3)C(=N)C2=S)c(OC)c1 , the logged Activity turned out to be 0.69

* * *

- Test system: HeLa
- experimental_details: Cytotoxicity against human HeLa cells assessed as surviving fraction at 25 ug/ml after 48 hrs by SRB assay relative to control
- Assay type: functional
experimental_readout: Activity

// below: answered compounds
>>> result("COc1ccc(N2C(=N)C(=S)N(c3ccc(OC)cc3OC)C2=O)cc1")
0.17
>>> result("N=C1C(=S)N(c2ccc(Cl)cc2)C(=O)N1Cc1ccccc1")
0.29
>>> result("COc1ccc(N2C(=O)N(c3ccc(C)cc3)C(=N)C2=S)c(OC)c1")
0.22

compound COc1ccc(N2C(=O)N(c3ccc(SC)cc3)C(=N)C2=S)c(OC)c1 , Activity observed: 0.2

* * *

molecules and their reported Activity
- System: MCF7
- experimental_details: Cytotoxicity against human MCF7 cells assessed as surviving fraction at 5 ug/ml after 48 hrs by SRB assay relative to control
- Format: functional
Lab note: write the figure by itself, no unit.

>>> numeric_result("N=C1C(=S)N(c2ccc(Cl)cc2)C(=O)N1Cc1ccccc1")
0.49
>>> numeric_result("COc1ccc(N2C(=O)N(c3ccc(C)cc3)C(=N)C2=S)c(OC)c1")
0.43
>>> numeric_result("COc1ccc(N2C(=O)N(c3ccc(SC)cc3)C(=N)C2=S)c(OC)c1")
0.68

Now, please, on to the next molecule.
The recorded Activity for entry COc1ccc(N2C(=N)C(=S)N(c3ccc(OC)cc3OC)C2=O)cc1 equals 0.25

* * *

- Test system: Escherichia coli
- experimental_details: Antibacterial activity against Escherichia coli NCTC 10416 at 5 mg/ml after 24 hrs by agar disc diffusion method
- Type: functional
- experimental_context: NCTC 10416, 24 h, read-out: DIZ
Entries annotated with measured zone of inhibition at 5000 µg/mL
Could you give me the number in mm? Just the number is fine.

Check out these entries, answers already filled in.
>>> numeric_result("Cc1ccc(N2C(=N)C(=S)N(c3ccc(Cl)cc3)C2=O)cc1")
17
>>> numeric_result("N=C1C(=S)N(c2ccc(Cl)cc2)C(=O)N1Cc1ccccc1")
22

What the record says about Cc1ccc(N2C(=N)C(=S)N(c3ccccc3)C2=O)cc1 : zone of inhibition at 5000 µg/mL is 20

Summary for this compound, COc1ccc(N2C(=N)C(=S)N(c3ccc(I)cc3)C2=O)cc1 : zone of inhibition at 5000 µg/mL is 19

* * *

- Tested on: Escherichia coli
- experimental_details: Antibacterial activity against Escherichia coli NCTC 10416 at 5 mg/ml after 24 hrs by agar disc diffusion method
- Assay type: functional
- experimental_context: NCTC 10416, 24 h, read-out: DIZ
The compounds listed here are annotated with their zone of inhibition at 5000 µg/mL.
State the answer as a number, implicitly in mm.

Example entries and their recorded answers appear below.
>>> numeric_result("COc1ccc(N2C(=O)N(c3ccc(SC)cc3)C(=N)C2=S)c(OC)c1")
19
>>> numeric_result("COc1ccc(N2C(=N)C(=S)N(c3ccc(Br)cc3)C2=O)cc1")
16
>>> numeric_result("COc1ccc(N2C(=N)C(=S)N(c3ccccc3)C2=O)cc1")
25
>>> numeric_result("CSc1ccc(N2C(=N)C(=S)N(c3ccc(I)cc3)C2=O)cc1")
14.5

The reported zone of inhibition at 5000 µg/mL of the compound N=C1C(=S)N(c2ccc(Br)cc2)C(=O)N1Cc1ccccc1 was 18.5

Reported zone of inhibition at 5000 µg/mL of COc1ccc(N2C(=N)C(=S)N(c3ccc(OC)cc3OC)C2=O)cc1 : 24.5

Note to self: zone of inhibition at 5000 µg/mL recorded for COc1ccc(N2C(=O)N(c3ccc(C)cc3)C(=N)C2=S)c(OC)c1 was 25.5

# compound COc1ccc(N2C(=N)C(=S)N(c3ccc(Cl)cc3)C2=O)cc1 ; its zone of inhibition at 5000 µg/mL = 23.5

Record summary for CSc1ccc(N2C(=N)C(=S)N(c3ccccc3)C2=O)cc1 : reported zone of inhibition at 5000 µg/mL = 25.5

Looking up CSc1ccc(N2C(=N)C(=S)N(c3ccc(Cl)cc3)C2=O)cc1 , I see its zone of inhibition at 5000 µg/mL listed as 15.5

Value of zone of inhibition at 5000 µg/mL reported for the compound CSc1ccc(N2C(=N)C(=S)N(c3ccc(Br)cc3)C2=O)cc1 is 15.5

* * *

- System: MCF7
- experimental_details: Cytotoxicity against human MCF7 cells assessed as surviving fraction at 50 ug/ml after 48 hrs by SRB assay relative to control
- Format: functional
Entries annotated with measured Activity
Lab note: jot down the number only; don't add units.

>>> numeric_result("COc1ccc(N2C(=N)C(=S)N(c3ccc(OC)cc3OC)C2=O)cc1")
0.27
>>> numeric_result("N=C1C(=S)N(c2ccc(Cl)cc2)C(=O)N1Cc1ccccc1")
0.2
>>> numeric_result("COc1ccc(N2C(=O)N(c3ccc(SC)cc3)C(=N)C2=S)c(OC)c1")
0.28

Value (Activity, MCF7) for record COc1ccc(N2C(=O)N(c3ccc(C)cc3)C(=N)C2=S)c(OC)c1 = 0.29

* * *

- System: HEp-2
- experimental_details: Cytotoxicity against human Hep2 cells after 48 hrs by SRB assay
- Assay type: functional, cell-based
- experimental_context: HEp-2, 48 h
Reported IC50 values for the following compounds.
Entry rule: numbers only, all in mg/L.

>>> numeric_result("COc1ccc(N2C(=O)N(c3ccc(SC)cc3)C(=N)C2=S)c(OC)c1")
12.1
>>> numeric_result("N=C1C(=S)N(c2ccc(Cl)cc2)C(=O)N1Cc1ccccc1")
3.28
>>> numeric_result("COc1ccc(N2C(=O)N(c3ccc(C)cc3)C(=N)C2=S)c(OC)c1")
7.09

Could you now consider this next compound?
Fill in: HEp-2 IC50 for COc1ccc(N2C(=N)C(=S)N(c3ccc(OC)cc3OC)C2=O)cc1 = 3.89

* * *

- Tested on: MCF7
- experimental_details: Cytotoxicity against human MCF7 cells assessed as surviving fraction at 12.5 ug/ml after 48 hrs by SRB assay relative to control
- Type: functional
Entries and their measured Activity follow.

Examples with their reported Activity follow.
>>> result("COc1ccc(N2C(=O)N(c3ccc(C)cc3)C(=N)C2=S)c(OC)c1")
0.21
>>> result("COc1ccc(N2C(=N)C(=S)N(c3ccc(OC)cc3OC)C2=O)cc1")
0.17
>>> result("N=C1C(=S)N(c2ccc(Cl)cc2)C(=O)N1Cc1ccccc1")
0.12

Record COc1ccc(N2C(=O)N(c3ccc(SC)cc3)C(=N)C2=S)c(OC)c1 has MCF7 Activity equal to 0.49

* * *

- Test system: HEp-2
- experimental_details: Cytotoxicity against human Hep2 cells assessed as surviving fraction at 5 ug/ml after 48 hrs by SRB assay relative to control
- Assay type: functional
Recorded Activity by entry
Could you respond with only the numeric value?

Looking up COc1ccc(N2C(=O)N(c3ccc(SC)cc3)C(=N)C2=S)c(OC)c1 , I found its Activity recorded as 0.71

Lab note: measured Activity of N=C1C(=S)N(c2ccc(Cl)cc2)C(=O)N1Cc1ccccc1 was 0.24

Memo: COc1ccc(N2C(=O)N(c3ccc(C)cc3)C(=N)C2=S)c(OC)c1 , reported Activity: 0.6

Form field Activity, entry COc1ccc(N2C(=N)C(=S)N(c3ccc(OC)cc3OC)C2=O)cc1 : 0.36

* * *

- Tested on: Aspergillus flavus
- experimental_details: Antifungal activity against Aspergillus flavus at 5 mg/ml by agar disc diffusion method
- Format: functional
- experimental_context: read-out: DIZ
experimental_readout: zone of inhibition at 5000 µg/mL (mm)
Kindly provide the numeric value in mm only, without the unit symbol.

Some solved cases for reference:
>>> numeric_result("N=C1C(=S)N(c2ccc(I)cc2)C(=O)N1Cc1ccccc1")
15
>>> numeric_result("COc1ccc(N2C(=N)C(=S)N(c3ccc(I)cc3)C2=O)cc1")
18
>>> numeric_result("CSc1ccc(N2C(=N)C(=S)N(c3ccc(Cl)cc3)C2=O)cc1")
15
>>> numeric_result("COc1ccc(N2C(=N)C(=S)N(c3ccccc3)C2=O)cc1")
18
>>> numeric_result("CSc1ccc(N2C(=N)C(=S)N(c3ccccc3)C2=O)cc1")
18

Okay, now this compound:
Entry CSc1ccc(N2C(=N)C(=S)N(c3ccc(I)cc3)C2=O)cc1 — recorded zone of inhibition at 5000 µg/mL = 15

// provenance: ChEMBL document CHEMBL1782009
